# System: full-length human PLD1 (Homo sapiens (Human), UniProt Q13393)
# Sequence (Q13393 other isoform, or with tags, fused parts or gaps): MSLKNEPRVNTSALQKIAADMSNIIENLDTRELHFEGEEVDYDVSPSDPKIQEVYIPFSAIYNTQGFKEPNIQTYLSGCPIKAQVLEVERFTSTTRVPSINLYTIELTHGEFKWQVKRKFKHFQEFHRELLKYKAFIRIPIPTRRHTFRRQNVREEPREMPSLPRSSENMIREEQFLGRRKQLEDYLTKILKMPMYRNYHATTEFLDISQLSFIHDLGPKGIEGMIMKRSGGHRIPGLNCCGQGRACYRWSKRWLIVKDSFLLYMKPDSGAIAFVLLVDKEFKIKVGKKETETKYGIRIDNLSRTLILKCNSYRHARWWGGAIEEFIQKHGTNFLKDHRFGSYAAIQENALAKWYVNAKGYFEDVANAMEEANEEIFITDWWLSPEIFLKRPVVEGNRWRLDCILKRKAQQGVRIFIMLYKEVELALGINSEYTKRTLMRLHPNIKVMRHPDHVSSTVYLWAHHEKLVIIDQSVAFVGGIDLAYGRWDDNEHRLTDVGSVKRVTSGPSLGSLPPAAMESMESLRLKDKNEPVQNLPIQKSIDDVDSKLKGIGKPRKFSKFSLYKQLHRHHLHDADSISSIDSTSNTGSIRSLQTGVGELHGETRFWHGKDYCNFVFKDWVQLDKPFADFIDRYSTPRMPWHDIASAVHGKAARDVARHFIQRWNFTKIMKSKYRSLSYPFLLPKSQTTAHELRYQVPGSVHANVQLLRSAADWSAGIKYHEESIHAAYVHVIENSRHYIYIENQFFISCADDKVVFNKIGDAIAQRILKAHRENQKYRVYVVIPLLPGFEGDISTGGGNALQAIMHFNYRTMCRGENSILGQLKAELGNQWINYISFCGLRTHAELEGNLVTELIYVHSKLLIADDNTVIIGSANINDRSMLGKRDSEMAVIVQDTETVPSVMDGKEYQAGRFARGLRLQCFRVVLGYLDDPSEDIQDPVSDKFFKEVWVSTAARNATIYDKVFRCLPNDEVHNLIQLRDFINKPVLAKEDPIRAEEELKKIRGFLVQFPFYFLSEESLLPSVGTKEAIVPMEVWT
# Assay Text: Evaluation of human PLD1 enzyme inhibitory activity (Amplex Red / choline oxidase fluorescence)
# Assay type: biochemical
# Measurement Parameters: full-length human PLD1 enzyme; read-out: PLD1 IC50
Measured Endpoint: IC50 (nM)
Please reply with the bare figure in nM and do not write the unit itself.

Q: Which measured IC50 value corresponds to `Cc1cc(C(=O)N[C@@H](C)CN2CCC3(CC2)OC(=O)NN=C3c2ccc(F)cc2Br)[nH]n1` ?
A: 27

Q: For `Cc1cc(C(=O)N[C@@H](C)C[C@H]2CC[C@]3(CC2)OC(=O)NN=C3c2cnc(N3C[C@H]4C[C@@H]3CO4)cc2Cl)[nH]n1` then?
A: 18

Q: Same thing, different molecule: `C[C@@H](C[C@H]1CC[C@]2(CC1)OC(=O)NN=C2c1ccc(S(C)(=O)=O)cc1Cl)NC(=O)c1cc(Cl)no1`
A: 21

Q: C[C@@H](C[C@H]1CC[C@]2(CC1)OC(=O)NN=C2c1ccc(F)cc1Br)NC(=O)C1CC1c1ccccc1 (single isomer, unassigned) [Example 39] ?
A: 93

Q: Record: `C[C@@H](CN1CCC2(CC1)OC(=O)NN=C2c1cc(C#N)ccc1Br)NC(=O)c1cc(F)c[nH]1`
A: 17

Q: Now the molecule `CNC(=O)C(=O)N[C@@H](C)C[C@H]1CC[C@]2(CC1)OC(=O)NN=C2c1ccccc1C`
A: 11

Q: Ok, now `CNC(=O)C(=O)N[C@@H](C)[C@H](C)[C@H]1CC[C@]2(CC1)OC(=O)NN=C2c1cc(C#N)ccc1Br`
A: 24

Q: Query `Cc1cc(C(=O)N[C@@H](C)C[C@H]2CC[C@]3(CC2)OC(=O)NN=C3c2cnc(N3CC4CCC(C3)O4)cc2C)[nH]n1` next
A: 17

Q: Thanks! And `CNC(=O)C(=O)N[C@@H](C)C[C@]1(C#N)CC[C@@]2(CC1)OC(=O)NN=C2c1cccc(C(F)(F)F)c1Br` ?
A: 11

Q: Also check `C[C@@H](C[C@H]1CC[C@]2(CC1)OC(=O)NN=C2c1ccc(C#N)cc1Br)NC(=O)N1CCn2nccc2C1`
A: 17

Q: Could you do the same for `CNC(=O)C(=O)N[C@@H](C)C[C@H]1CC[C@]2(CC1)OC(=O)NN=C2c1cnc(N2CC(F)(F)C2)cc1C` , please?
A: 28

Q: Please do the same for `C[C@@H](C[C@H]1CC[C@]2(CC1)OC(=O)NN=C2c1ccc(F)cc1Br)NC(=O)c1cc2ccccc2o1` as well.
A: 17

Q: Also need `CNC(=O)C(=O)N[C@@H](C)C[C@H]1CC[C@]2(CC1)OC(=O)NN=C2c1cccnc1C` , thanks.
A: 288

Q: Likewise for `C[C@@H](C[C@H]1CC[C@]2(CC1)OC(=O)NN=C2c1ccc(F)cc1Br)NC(=O)c1cc(C(F)(F)F)n[nH]1` ?
A: 34

Q: How about `C[C@@H](C[C@H]1CC[C@]2(CC1)OC(=O)NN=C2c1ccc(F)cc1Br)NC(=O)/C=C/CN(C)C` ?
A: 86
